These entries and their values trace back to FireProtDB (doi:10.1002/pro.2375).

B1: Amylosucrase, Q9ZEU2 (parent)
chain: MLTPTQQVGLILQYLKTRILDIYTPEQRAGIEKSEDWRQFSRRMDTHFPKLMNELDSVYGNNEALLPMLEMLLAQAWQSYSQRNSSLKDIDIARENNPDWILSNKQVGGVCYVDLFAGDLKGLKDKIPYFQELGLTYLHLMPLFKCPEGKSDGGYAVSSYRDVNPALGTIGDLREVIAALHEAGISAVVDFIFNHTSNEHEWAQRCAAGDPLFDNFYYIFPDRRMPDQYDRTLREIFPDQHPGGFSQLEDGRWVWTTFNSFQWDLNYSNPWVFRAMAGEMLFLANLGVDILRMDAVAFIWKQMGTSCENLPQAHALIRAFNAVMRIAAPAVFFKSEAIVHPDQVVQYIGQDECQIGYNPLQMALLWNTLATREVNLLHQALTYRHNLPEHTAWVNYVRSHDDIGWTFADEDAAYLGISGYDHRQFLNRFFVNRFDGSFARGVPFQYNPSTGDCRVSGTAAALVGLAQDDPHAVDRIKLLYSIALSTGGLPLIYLGDEVGTLNDDDWSQDSNKSDDSRWAHRPRYNEALYAQRNDPSTAAGQIYQGLRHMIAVRQSNPRFDGGRLVTFNTNNKHIIGYIRNNALLAFGNFSEYPQTVTAHTLQAMPFKAHDLIGGKTVSLNQDLTLQPYQVMWLEIA

Variants of: B1
measurement.parameters: Neisseria polysaccharea; pH 7; Thermal; DSF; Tris 50 mM; structure 1G5A; whole UniProt chain shown
measurement.type: change of melting temperature, mutant - wild type (higher = more stable) (°C)
Note: unit °C is implicit; provide only the numeric part.

Known results for variants:
D152E	-1.4
Y155F	-0.2
R454F	0.2
H195Q	-3
H400L	-0.4
H400W	0.4

The measured change of melting temperature, mutant - wild type (higher = more stable) associated with `F258Y` reads -0.8

The measured change of melting temperature, mutant - wild type (higher = more stable) associated with `H195D` reads -3.4

The measured change of melting temperature, mutant - wild type (higher = more stable) associated with `H400T` reads 0.4

The measured change of melting temperature, mutant - wild type (higher = more stable) associated with `H195K` reads -0.4
